Below are IC50 values measured for UniProtKB Q04206.
Sequence (Q04206 whole entry): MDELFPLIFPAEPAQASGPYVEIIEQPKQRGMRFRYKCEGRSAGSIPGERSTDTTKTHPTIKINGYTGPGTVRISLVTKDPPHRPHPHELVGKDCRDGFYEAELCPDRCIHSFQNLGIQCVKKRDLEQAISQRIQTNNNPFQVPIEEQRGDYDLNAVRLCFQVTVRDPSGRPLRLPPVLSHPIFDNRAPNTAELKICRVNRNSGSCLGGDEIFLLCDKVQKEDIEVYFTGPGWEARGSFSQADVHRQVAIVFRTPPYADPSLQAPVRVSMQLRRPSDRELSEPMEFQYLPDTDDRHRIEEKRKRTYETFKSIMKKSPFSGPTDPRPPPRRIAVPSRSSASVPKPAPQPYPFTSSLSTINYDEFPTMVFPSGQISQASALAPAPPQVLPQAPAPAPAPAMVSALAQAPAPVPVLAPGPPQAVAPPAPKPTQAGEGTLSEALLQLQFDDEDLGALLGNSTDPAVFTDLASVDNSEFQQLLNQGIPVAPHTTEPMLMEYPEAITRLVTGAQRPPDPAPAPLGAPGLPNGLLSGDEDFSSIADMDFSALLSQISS
Sequence (P19838 1-433 partner limits assumed): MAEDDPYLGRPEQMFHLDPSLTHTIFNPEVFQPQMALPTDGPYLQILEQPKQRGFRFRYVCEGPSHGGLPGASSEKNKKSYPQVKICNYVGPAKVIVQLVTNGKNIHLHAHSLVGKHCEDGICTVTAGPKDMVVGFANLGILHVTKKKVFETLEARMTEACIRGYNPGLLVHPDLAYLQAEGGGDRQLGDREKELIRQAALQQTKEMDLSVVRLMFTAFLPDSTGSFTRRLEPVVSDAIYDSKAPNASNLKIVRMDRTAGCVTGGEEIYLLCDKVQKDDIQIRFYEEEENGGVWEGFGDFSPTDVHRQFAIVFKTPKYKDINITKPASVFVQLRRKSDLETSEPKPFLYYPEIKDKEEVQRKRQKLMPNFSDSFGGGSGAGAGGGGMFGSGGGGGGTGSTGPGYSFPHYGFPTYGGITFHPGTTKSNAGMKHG

# RECORD SMILES, IC50
rows = [
    ("C[C@@H]1OC[C@@H]2[C@@H](C[C@H]3c4c(c5ccccc5n4C)C[C@@H]2N3C)[C@H]1CO", "> 20 µM"),
]

Measured on UniProtKB Q04206, CC(=O)C1=COC[C@@H]2[C@H]1C[C@H]1c3c(c4ccccc4n3C)C[C@@H]2N1C has a documented IC50 of > 20 µM

Response field IC50 (UniProtKB Q04206) for item CC1=C(C=O)[C@@H]2C[C@H]3c4c(c5ccccc5n4C)C[C@@H]([C@@H]2CO1)N3C : > 20 µM

From: paper PMC4287998
